- Test system: HOP-62 NSCLC
- assay-text: NCI-60 one-dose screen, 48 h (100 = growth as untreated, 0 = no growth, -100 = all killed)
- setup-conditions: 10 µM unless noted
About 83,000 compounds went through this panel and 20% of them were active in at least one assay; those are over-represented in the sample as a whole.
Consider the following compounds; for each one, report its growth.
Respond numerically; units are % and should not be typed.

Record Clc1ccc(CNc2c3ccccc3nc3ccccc23)cc1 . Reported growth: 53

Record Cc1ccc(NC(=S)NNC(=S)NNc2ccccc2)cc1C . Reported growth: 106

Record CCN(CC)CCNC(=O)c1cn2ncnc(Oc3ccc(NC(=O)Nc4ccc(Cl)c(C(F)(F)F)c4)c(F)c3)c2c1C . Reported growth: 36.5

Record Cc1ccc(Cc2cnc(NC(=O)c3cc(Br)cs3)s2)cc1 . Reported growth: 50.8

Record COc1ccc2c(O)c(/C=C3\N=Nc4ccccc43)oc2c1C[C@@H]1CCNC[C@H]1F . Reported growth: 71.4

Record COC(=O)c1cc(-c2ccc(S(C)(=O)=O)cc2)[nH]c1N/N=C/c1c(Cl)cccc1Cl . Reported growth: 3.22

Record O=C1/C(=C/c2cccs2)SC(=S)N1CCCN1CCOCC1 . Reported growth: 111

Record C=C1C(=O)O[C@H]2[C@H]1CC/C(COC(=O)CSCCSCC(=O)OC/C1=C/CC[C@@]3(C)O[C@H]3[C@H]3OC(=O)C(=C)[C@@H]3CC1)=C\CC[C@@]1(C)O[C@@H]21 . Reported growth: 81.2

Record O=C(CSc1nc2sc3c(c2c(=O)n1-c1ccccc1)CCCCC3)N/N=C/c1ccc(F)cc1 . Reported growth: 19.9

Record O=C(CSc1nc2ccc([N+](=O)[O-])cc2[nH]1)Nc1ccc(F)cc1 . Reported growth: 105

Record Cn1c(=O)c2[nH]c(N/N=C/c3ccccc3Br)nc2n(C)c1=O . Reported growth: 112

Record O=C1c2c(c3c4ccc(Br)cc4oc3c3[nH]c4ccccc4c23)C(=O)N1O . Reported growth: 29.3

Record CCOC(=O)c1c2c(n3ccc(C)cc13)C(=O)c1ccccc1C2=O . Reported growth: 106

Record O=S(=O)(Nc1cc(Br)c(O)c2ccccc12)c1ccc(F)cc1 . Reported growth: 103

Record Cc1ccc(/C=C2\CN(C(=O)OC(C)(C)C)C/C(=C\c3ccc(C)cc3)C2=O)cc1 . Reported growth: 94.9

Record COc1ccc(C(=O)Nc2ncc(Cc3ccc(F)cc3)s2)cc1 . Reported growth: 28.7

Record Cc1ccc(-c2nc(N3CCNCC3)c3oc(-c4ccccc4)nc3n2)cc1 . Reported growth: -6.18

Record C[C@]12C=CC(=O)C=C1CCC1C2[C@@H](O)C[C@@]2(C)C1CC[C@]2(O)C(=O)COC(=O)CCC(=O)O (some centres undefined) . Reported growth: 121

Record CO[C@]12C=C/C(=C(/C(=O)OCc3cccnc3)C(=O)CCCCCCCC[C@@]3(OC)C=C/C(=C(/C(=O)OCc4cccnc4)C(=O)CCCCCCCC1)O3)O2 . Reported growth: 30.9

----------
- Test system: K-562 leukemia
- assay-text: NCI-60 one-dose screen, 48 h
- setup-conditions: 10 µM unless noted
The panel holds about 83,000 compounds, 20% with a hit somewhere; the sample as a whole holds those more often. Active and inactive are the calls of the source. How the source made its calls: active means growth percent below 10; inactive means the rest.
Answer with one of the outcomes given here: active, inactive

Write down the call the test reported for this compound. Item: CCOC(=O)c1cc(C(=O)c2cc(OC)c(OC)c(OC)c2)n2ccc(-c3ccncc3)cc12
inactive

Write down the call the test reported for this compound. Item: O=C(Cc1ccccc1)Nc1nc(O)c(/C=C2\C(=O)C=Cc3ccccc32)s1
inactive

Write down the call the test reported for this compound. Item: CN1C(=O)/C(=C/c2cn(-c3ccccc3)nc2-c2ccccc2)SC1=S
inactive

Write down the call the test reported for this compound. Item: CO[C@H]1/C=C(/C)CCC[C@H](C)[C@H](O)[C@@H](C)C(=O)C(C)(C)[C@@H](O)CC(=O)O[C@@H]1/C(C)=C/c1csc(C)n1
inactive

Write down the call the test reported for this compound. Item: COc1ccc(-c2ccc3cnc4sc(-c5ccc(OC)cc5)nc4c3n2)cc1
inactive

Write down the call the test reported for this compound. Item: Nc1ncnc2c1N=C(c1ccc(Cl)cc1)CC(c1ccc3c(c1)OCO3)N2 (centres undefined)
inactive

Write down the call the test reported for this compound. Item: COc1ccc2c(O)c(/C=C3\N=Nc4ccccc43)oc2c1C[C@@H]1CCNC[C@H]1F
active

Write down the call the test reported for this compound. Item: N#Cc1nc(-c2ccccc2)oc1S(=O)(=O)N1CCOCC1
active

Write down the call the test reported for this compound. Item: CC(C)N1CN2C(=S)NC3C2N(C1)C(=S)N3C (centres undefined)
inactive
